From: patent US8440666B2

pIC50: recorded values
# Study target: Human P2X7 (hP2X7) receptor (Homo sapiens)
# Construct: myc-His (from the pcDNA3.1/myc-HisA vector); expressed in transfected cells
# Sequence (Q99572 whole entry): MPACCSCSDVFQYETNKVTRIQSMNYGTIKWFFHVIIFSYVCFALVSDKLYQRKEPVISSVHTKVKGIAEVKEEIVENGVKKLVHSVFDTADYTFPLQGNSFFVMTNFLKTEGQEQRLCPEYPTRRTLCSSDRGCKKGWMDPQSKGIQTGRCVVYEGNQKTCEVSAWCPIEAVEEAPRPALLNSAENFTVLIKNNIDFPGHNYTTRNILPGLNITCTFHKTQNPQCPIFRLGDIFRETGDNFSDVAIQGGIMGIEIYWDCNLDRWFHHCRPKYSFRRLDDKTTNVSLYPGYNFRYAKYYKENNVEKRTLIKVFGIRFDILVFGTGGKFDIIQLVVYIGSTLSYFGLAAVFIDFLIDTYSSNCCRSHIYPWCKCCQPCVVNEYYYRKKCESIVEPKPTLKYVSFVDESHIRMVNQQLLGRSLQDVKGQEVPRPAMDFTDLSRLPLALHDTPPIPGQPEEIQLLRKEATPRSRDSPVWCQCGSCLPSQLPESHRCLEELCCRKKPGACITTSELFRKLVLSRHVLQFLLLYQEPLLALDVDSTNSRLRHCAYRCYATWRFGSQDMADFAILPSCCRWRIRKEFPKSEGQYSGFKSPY
# Method summary: Dye assay: BzATP-induced Yo-Pro-1 uptake in HEK293 cells stably expressing hP2X7
# Type: cell-based
# Conditions used: BzATP (0.1 mM)-induced Yo-Pro-1 uptake, compounds 30 min pre-treatment, 90 min incubation
Friendly reminder that pIC50 comes from taking -log10 of the concentration in mol/L.

# count of solved cases: 4
1. CCN(CC)c1ccc(C(=O)Cn2ncc(N[C@@H]3C[C@@H]4C[C@H]([C@H]3C)C4(C)C)c(Br)c2=O)cc1 :: 8.39
2. O=C(Cn1ncc(NC2CC3CC4CC(C3)C2C4)c(Br)c1=O)NCc1ccncc1 (centres unmarked) :: 7.72
3. C[C@@H]1[C@H]2C[C@@H](C[C@H]1Nc1cnn(CCNCc3ccncc3)c(=O)c1Br)C2(C)C [Synthetic Example 47] :: 7.68
4. O=C(Cn1ncc(SC23CC4CC(CC(C4)C2)C3)c(Br)c1=O)NCc1ccncc1 [Synthetic Example 430] :: 7.24

## Input What pIC50 value was documented for this compound, CC1(C)C2CCC1(C)C(Nc1cnn(CC(=O)NCc3ccncc3)c(=O)c1Br)C2 (centres unmarked) ?
## Output 7.39

## Input What pIC50 value was documented for this compound, CC(NC(=O)Cn1ncc(N[C@@H]2C[C@@H]3C[C@@H](C3(C)C)[C@]2(C)O)c(Cl)c1=O)c1ccnc(F)c1 (some centres unmarked) ?
## Output 8.57

## Input What pIC50 value was documented for this compound, C[C@@H]1[C@H]2C[C@@H](C[C@H]1Nc1cnn(CC(=O)Nc3cccc([N+](=O)[O-])c3)c(=O)c1Br)C2(C)C ?
## Output 7.34

## Input What pIC50 value was documented for this compound, CC(NC(=O)Cn1ncc(NC23CC4CC(CC2C4)C3)c(Br)c1=O)c1ccnnc1 (centres unmarked) ?
## Output 7.59
